# System: 786-0
# assay protocol: NCI tumour cell line growth inhibition, 48 h
The source made the active and inactive calls. Cut-off read from the data, not from the text of the source: active = GI50 up to about 1.1 µM and inactive = higher.
Possible outcomes: active, inactive

{"molecule": "CCCC(=O)NC(Nc1cc(C)ccn1)(C(=O)OCC)C(F)(F)F (centres undefined)", "category label": "inactive"}
{"molecule": "CC(C)(C)N1C(=O)c2ccccc2C1(O)C(F)(F)F (centres undefined)", "category label": "inactive"}
{"molecule": "C/N=C(\\N)N/N=C(\\C)c1ccc2oc3ccc(/C(C)=N/N/C(N)=N/C)cc3c2c1", "category label": "inactive"}
{"molecule": "CSc1c(C)c(C)nn1-c1ccccc1", "category label": "inactive"}
{"molecule": "Cc1cc2c(C(C)C)c(O)c(O)c(/C=N/c3cc(C(F)(F)F)ccc3Cl)c2c(O)c1-c1c(C)cc2c(C(C)C)c(O)c(O)c(/C=N/c3cc(C(F)(F)F)ccc3Cl)c2c1O", "category label": "inactive"}
{"molecule": "CCOC(=O)c1nc2ccc(C(F)(F)F)cc2nc1Oc1cc(OC)cc(OC)c1", "category label": "inactive"}
{"molecule": "COc1ccc(C(=O)/C=C/c2ccc3c(c2)OCO3)c(OCc2ccccc2)c1", "category label": "inactive"}
{"molecule": "O=C1/C(=C/c2ccco2)N=C(c2ccccc2)N1c1cc2cc(Sc3ccccc3)ccc2[nH]1", "category label": "inactive"}
{"molecule": "COc1ccc(C2CCC(Cl)(OC)CC2C=O)cc1 (centres undefined)", "category label": "inactive"}
{"molecule": "CC1=C([S+]([O-])c2ccc(C)cc2)CCC2(CCCCO2)O1 (centres undefined)", "category label": "inactive"}
{"molecule": "C[N+](C)(C)CCC(=O)N1C/C(=C\\c2ccccc2)C(=O)/C(=C/c2ccccc2)C1", "category label": "inactive"}
{"molecule": "CC1=NN(C(=O)c2ccc(Cl)cc2)C(=O)/C1=C/c1ccco1", "category label": "inactive"}
{"molecule": "COc1ccc(CCN2C(=O)CC34C=CC(CC3C2=O)O4)cc1OC (centres undefined)", "category label": "inactive"}
{"molecule": "CCN(CC)CCNc1ccc(/N=N/c2ccc(S(N)(=O)=O)cc2)c2ccccc12", "category label": "inactive"}
{"molecule": "Cc1c2cc[n+](C)cc2c(C)c2c1[nH]c1ccc(OCC(F)(F)F)cc12", "category label": "active"}
{"molecule": "CC(=O)OCCn1c(Cc2ccc(Cl)cc2)nn(C(C)=O)c1=O", "category label": "inactive"}
{"molecule": "O=C(CSc1nnc(Cc2ccccc2)o1)Nc1ccccc1", "category label": "inactive"}
{"molecule": "CC1C[C@H](OC(N)=O)C(C)CC1=O (some centres undefined)", "category label": "inactive"}
{"molecule": "C#CCSc1nc(N)c2ncn(C3OC(CO)C(O)C3O)c2n1 (centres undefined)", "category label": "inactive"}
{"molecule": "CNC1NC(=O)c2ccccc2N1Cc1ccc(F)cc1 (centres undefined)", "category label": "inactive"}
{"molecule": "CN(C)c1ccc(/C=c2/sc3nc(=O)c(-c4ccccc4NC(=O)C(F)(F)F)nn3c2=O)cc1", "category label": "inactive"}
{"molecule": "N/C(=N\\N=C\\c1nc2ccccc2o1)c1cnccn1", "category label": "inactive"}
{"molecule": "CC(C)(C)c1cc2nc(c1)C(C(F)(F)F)(C(F)(F)F)OB(Br)OC2(C(F)(F)F)C(F)(F)F", "category label": "active"}
{"molecule": "CC1CCC2CC(=O)OC([C@@H]3C(=O)O[C@@H](C4=CCCC4)C4C(C)CCC43)C12 (some centres undefined)", "category label": "inactive"}
{"molecule": "N#CCC(=O)c1cc(OCc2cc(OCc3ccc(Br)cc3)cc(OCc3ccc(Br)cc3)c2)cc(OCc2cc(OCc3ccc(Br)cc3)cc(OCc3ccc(Br)cc3)c2)c1", "category label": "inactive"}
{"molecule": "Cc1cc(OP2(=O)NCc3ncccc3O2)ccc1Cl (centres undefined)", "category label": "inactive"}
{"molecule": "CC[C@@]1(C[C@H]2C[C@@]3(C(=O)OC)c4[nH]c5ccccc5c4CCN3C2=S)COC2(CCCCC2)O1", "category label": "inactive"}
{"molecule": "CC1C=C(NCC2(CO)CCC2)N=C(N)N1 (centres undefined)", "category label": "inactive"}
{"molecule": "COc1nc(NC2OC(COC(C)=O)C(OC(C)=O)C(OC(C)=O)C2OC(C)=O)c(/N=C(\\C)C(C)=O)c(=O)n1C (centres undefined)", "category label": "inactive"}
{"molecule": "c1csc(-c2nnc(C34CC5CC(CC(C5)C3)C4)o2)c1", "category label": "inactive"}
{"molecule": "COC1C2c3ccccc3C(C#N)(Cc3ccc4c(c32)OCO4)N1C(=O)c1ccccc1 (centres undefined)", "category label": "inactive"}
{"molecule": "Clc1ccc(C(OCn2ccnc2)c2nc3ccccc3[nH]2)c(Cl)c1 (centres undefined)", "category label": "inactive"}
{"molecule": "CC1=C(C(=O)Nc2ccc(Cl)c(C(=O)OC(C)C)c2)SCCO1", "category label": "inactive"}
{"molecule": "COC1(OC)CCc2c(sc3ncnc(Nc4cccc(Br)c4)c23)C1", "category label": "inactive"}
{"molecule": "CC(=O)Nc1ccc(-c2nc3ccccc3s2)cc1C", "category label": "inactive"}
{"molecule": "O=c1nc2n(cc1/C=C\\Br)C1CC(O)C(CO2)O1 (centres undefined)", "category label": "inactive"}
{"molecule": "Cc1oc2nc(N(C)C)n3c(C)nnc3c2c1C", "category label": "inactive"}
{"molecule": "CSc1c(C(=O)Nc2ccccc2)c(N)n(N)c(=O)c1C#N", "category label": "inactive"}
{"molecule": "OC1CCCCCCCCCCC1[S+]1CCCC1.O[B-](F)(F)F (centres undefined)", "category label": "inactive"}
{"molecule": "CC(=O)CC(N)=O", "category label": "inactive"}
{"molecule": "O=C(c1nc2ccccc2nc1O)C(O)c1ccccc1 (centres undefined)", "category label": "inactive"}
{"molecule": "Cc1nc(Cc2n[nH]c(C)n2)n[nH]1", "category label": "inactive"}
{"molecule": "Fc1ccccc1C1SCc2nc3ccccc3n21 (centres undefined)", "category label": "inactive"}
{"molecule": "CCCCCCCCCCCC(=O)C1=C(O)CC(O)CC1=O (centres undefined)", "category label": "inactive"}
